meta.source: the supplement of paper PMC10567573

B1: ZNF649 (parent)
chain: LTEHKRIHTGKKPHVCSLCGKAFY

# Variants of: B1
# assay.summary: protein stability index of a GFP-peptide fusion (GPS, HEK-293T) (PSI 1-6); higher = more stable;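 further: lentivirally expressed fusions sorted by FACS into six bins by GFP to DsRed ratio, PSI derived from sequencing read proportions per bin multiplied by bin number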
# assay.conditions: c terminus: a fixed tail appended
Answer not satisfied if protein stability index is under 3, and satisfied if it is 3 or more.

q: Kindly determine if protein stability index recorded for K11H is above or exactly 3.
a: not satisfied

q: Then this variant: K5C
a: satisfied

q: Then what about the variant K21F ?
a: not satisfied

q: Moving on to H4T
a: not satisfied

q: What do you get for K12G ?
a: satisfied

q: Entry to check: P13K
a: not satisfied

q: Note, next up: V15R
a: not satisfied

q: Would you mind doing A22W as well?
a: not satisfied

q: And T9R ?
a: not satisfied

q: // repeat for R6I and report
a: not satisfied

q: Next: T2A
a: not satisfied

q: Try this variant too: K5P
a: not satisfied

q: Also L1D ?
a: satisfied

q: Do the same for C16L please
a: not satisfied
